These data points were gathered from patent US6761885B1.

Some molecules, each annotated with its measured Zone.
# System: LB931
# Test summary: Sensitivity to antibiotic substances by the SIR system
# Type: cell-based, Lactobacillus plantarum
# Setup conditions: SIR system
Please give a number only; it is taken to be in mm.

Reported LB931 Zone for item NC[C@H]1O[C@H](O[C@H]2[C@H](O)[C@@H](O[C@H]3O[C@H](CO)[C@@H](O)[C@H](N)[C@H]3O)[C@H](N)C[C@@H]2N)[C@H](N)C[C@@H]1O [Tobramycin] was 32

Item CCn1cc(C(=O)O)c(=O)c2cc(F)c(N3CCNCC3)cc21 [Norfloxacin] was tested on LB931; the reported Zone is 0

Continuing:
Result for CCC[C@@H]1C[C@@H](C(=O)N[C@@H]([C@H]2O[C@H](SC)[C@H](O)[C@@H](O)[C@H]2O)[C@H](C)Cl)N(C)C1 [Clindamycin] , tested on LB931, Zone: 35

====

Quick reference for Zone among some compounds
# System: LB931
# Test summary: Sensitivity to antibiotic substances by the SIR system
# Assay type: cell-based, Lactobacillus plantarum
# Setup conditions: SIR system
Provide the reading as a plain figure in mm.

Record for O=C1CN(/N=C/c2ccc([N+](=O)[O-])o2)C(=O)N1 [Nitrofuantin] under target or system LB931: Zone reported as 36

Here `NCC[C@H](O)C(=O)N[C@@H]1C[C@H](N)[C@@H](O[C@H]2O[C@H](CN)[C@@H](O)[C@H](O)[C@H]2O)[C@H](O)[C@H]1O[C@H]1O[C@H](CO)[C@@H](O)[C@H](N)[C@H]1O` was tested on LB931, and its Zone came to 30

Here `CC1=C(C(=O)O)N2C(=O)[C@@H](NC(=O)[C@H](N)c3ccc(O)cc3)[C@H]2SC1` was tested on LB931, and its Zone came to 24

Now for another entry.
The measured Zone that `Cc1onc(-c2ccccc2)c1C(=O)N[C@@H]1C(=O)N2[C@@H]1SC(C)(C)[C@@H]2C(=O)O` showed for LB931 is 0

====

Recorded measurements of Zone, one per entry
# System: LB931
# Test summary: Sensitivity to antibiotic substances by the SIR system
# Assay type: cell-based, Lactobacillus plantarum
# Setup conditions: SIR system
The response must be a number in mm with no trailing unit.

Worked cases, Zone given:
The recorded Zone for entry `CC(=O)OCC1=C(C(=O)O)N2C(=O)[C@@H](NC(=O)Cc3cccs3)[C@H]2SC1` equals 22

Recorded Zone (molecule `CCn1cc(C(=O)O)c(=O)c2ccc(C)nc21` ): 0

What the record says about `CO/N=C(\C(=O)N[C@@H]1C(=O)N2C(C(=O)[O-])=C(C[n+]3cccc4c3CCC4)CS[C@H]12)c1csc(N)n1` : Zone is 47

---
// field: Zone; key: `CCN[C@@H]1C[C@H](N)[C@@H](O[C@H]2OC(CN)=CC[C@H]2N)[C@H](O)[C@H]1O[C@H]1OC[C@](C)(O)[C@H](NC)[C@H]1O` ; value = 0

`C[C@H]1[C@H](NC(=O)/C(=N\OC(C)(C)C(=O)O)c2csc(N)n2)C(=O)N1S(=O)(=O)O` yielded Zone of 0

Measured Zone, `CC1(C)S[C@@H]2[C@H](/N=C/N3CCCCCC3)C(=O)N2[C@H]1C(=O)O` : 0

Query `CC(C)(O/N=C(\C(=O)N[C@@H]1C(=O)N2C(C(=O)[O-])=C(C[n+]3ccccc3)CS[C@H]12)c1csc(N)n1)C(=O)O` yields Zone of 35
